- assay target: Insulin-like growth factor 1 receptor (Homo sapiens) (UniProt P08069)
- Sequence (P08069 31-736 limits assumed): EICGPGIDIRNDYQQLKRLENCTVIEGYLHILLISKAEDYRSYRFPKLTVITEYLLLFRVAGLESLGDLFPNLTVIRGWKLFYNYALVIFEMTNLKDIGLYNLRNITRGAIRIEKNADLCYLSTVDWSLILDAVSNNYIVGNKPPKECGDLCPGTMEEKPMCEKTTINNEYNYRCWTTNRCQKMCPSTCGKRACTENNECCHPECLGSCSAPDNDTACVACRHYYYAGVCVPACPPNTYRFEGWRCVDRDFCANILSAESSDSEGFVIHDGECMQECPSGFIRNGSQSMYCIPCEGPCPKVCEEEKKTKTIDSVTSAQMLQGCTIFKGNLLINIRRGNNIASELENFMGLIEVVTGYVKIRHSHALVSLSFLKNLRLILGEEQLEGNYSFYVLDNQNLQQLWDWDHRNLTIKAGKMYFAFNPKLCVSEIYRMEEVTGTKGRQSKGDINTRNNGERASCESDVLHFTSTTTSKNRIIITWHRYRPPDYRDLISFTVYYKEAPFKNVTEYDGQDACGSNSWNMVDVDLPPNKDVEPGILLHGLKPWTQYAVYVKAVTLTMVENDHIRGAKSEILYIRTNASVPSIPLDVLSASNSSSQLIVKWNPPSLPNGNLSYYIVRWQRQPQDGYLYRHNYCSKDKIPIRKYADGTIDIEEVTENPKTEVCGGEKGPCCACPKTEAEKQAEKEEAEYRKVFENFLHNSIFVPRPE
- Sequence (P08069 741-1367 limits assumed): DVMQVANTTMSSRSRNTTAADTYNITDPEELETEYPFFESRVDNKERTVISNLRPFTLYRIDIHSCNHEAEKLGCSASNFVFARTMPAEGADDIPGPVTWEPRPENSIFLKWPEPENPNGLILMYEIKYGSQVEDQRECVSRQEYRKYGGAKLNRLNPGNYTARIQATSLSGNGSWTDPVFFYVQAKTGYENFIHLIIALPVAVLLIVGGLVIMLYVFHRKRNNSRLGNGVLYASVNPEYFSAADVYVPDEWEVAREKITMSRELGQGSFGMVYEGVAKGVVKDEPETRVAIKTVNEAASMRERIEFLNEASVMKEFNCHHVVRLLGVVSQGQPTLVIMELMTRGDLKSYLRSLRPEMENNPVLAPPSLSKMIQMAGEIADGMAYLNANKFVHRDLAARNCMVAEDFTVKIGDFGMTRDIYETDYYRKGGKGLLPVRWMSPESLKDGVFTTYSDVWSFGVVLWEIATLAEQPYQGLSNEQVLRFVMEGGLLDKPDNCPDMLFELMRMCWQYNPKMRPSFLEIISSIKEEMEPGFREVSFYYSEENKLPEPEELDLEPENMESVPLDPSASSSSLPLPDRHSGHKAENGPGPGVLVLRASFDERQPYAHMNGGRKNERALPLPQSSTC
- condition details: at 1 µM
Reported residual activity values for a set of molecules
result type: residual activity

{"molecule": "O=Nc1c(-c2c(O)[nH]c3ccccc23)[nH]c2ccccc12", "assay target": "Insulin-like growth factor 1 receptor (Homo sapiens) (UniProt P08069)", "result type": "residual activity", "result": "40%"}
{"molecule": "Oc1c2ccccc2c2c3c(cccc13)N=N2", "assay target": "Insulin-like growth factor 1 receptor (Homo sapiens) (UniProt P08069)", "result type": "residual activity", "result": "92%"}
{"molecule": "O=c1cc(-c2cccc3c2Sc2ccccc2S3)oc(N2CCOCC2)c1", "assay target": "Insulin-like growth factor 1 receptor (Homo sapiens) (UniProt P08069)", "result type": "residual activity", "result": "105%"}
{"molecule": "Cn1cnc2cc3c(Nc4cccc(Br)c4)ncnc3cc21", "assay target": "Insulin-like growth factor 1 receptor (Homo sapiens) (UniProt P08069)", "result type": "residual activity", "result": "109%"}
{"molecule": "CN(C)c1ccc(/C=C2\\C(=O)Nc3ccccc32)cc1", "assay target": "Insulin-like growth factor 1 receptor (Homo sapiens) (UniProt P08069)", "result type": "residual activity", "result": "105%"}
{"molecule": "CCC(=O)Nc1ccc2ncnc(Nc3cccc(Br)c3)c2c1", "assay target": "Insulin-like growth factor 1 receptor (Homo sapiens) (UniProt P08069)", "result type": "residual activity", "result": "97%"}
{"molecule": "CN(C)CCCn1cc(C2=C(c3c[nH]c4ccccc34)C(=O)NC2=O)c2ccccc21", "assay target": "Insulin-like growth factor 1 receptor (Homo sapiens) (UniProt P08069)", "result type": "residual activity", "result": "110%"}
{"molecule": "Cc1cccc(-c2[nH]c(C(C)(C)C)nc2-c2ccc3c(c2)OCO3)n1", "assay target": "Insulin-like growth factor 1 receptor (Homo sapiens) (UniProt P08069)", "result type": "residual activity", "result": "106%"}
{"molecule": "O=C1Nc2ccccc2/C1=C1/Nc2ccccc2/C1=N\\OCCC(O)CO (configuration not stated)", "assay target": "Insulin-like growth factor 1 receptor (Homo sapiens) (UniProt P08069)", "result type": "residual activity", "result": "10%"}
{"molecule": "CC(=O)O/N=C1\\C(=C2\\C(=O)Nc3cc(Br)ccc32)Nc2ccccc21", "assay target": "Insulin-like growth factor 1 receptor (Homo sapiens) (UniProt P08069)", "result type": "residual activity", "result": "102%"}
{"molecule": "Cc1nc(-c2ccccc2)c(-c2ccncc2)o1", "assay target": "Insulin-like growth factor 1 receptor (Homo sapiens) (UniProt P08069)", "result type": "residual activity", "result": "107%"}
{"molecule": "CCN(CC)C(=O)c1ccc(Nc2nc(OCC3CCCCC3)c3nc[nH]c3n2)cc1", "assay target": "Insulin-like growth factor 1 receptor (Homo sapiens) (UniProt P08069)", "result type": "residual activity", "result": "70%"}

---

Reported residual activity values for a set of molecules
- assay target: Serine/threonine-protein kinase WNK3 (Homo sapiens) (UniProt Q9BYP7)
- Sequence (Q9BYP7 whole entry): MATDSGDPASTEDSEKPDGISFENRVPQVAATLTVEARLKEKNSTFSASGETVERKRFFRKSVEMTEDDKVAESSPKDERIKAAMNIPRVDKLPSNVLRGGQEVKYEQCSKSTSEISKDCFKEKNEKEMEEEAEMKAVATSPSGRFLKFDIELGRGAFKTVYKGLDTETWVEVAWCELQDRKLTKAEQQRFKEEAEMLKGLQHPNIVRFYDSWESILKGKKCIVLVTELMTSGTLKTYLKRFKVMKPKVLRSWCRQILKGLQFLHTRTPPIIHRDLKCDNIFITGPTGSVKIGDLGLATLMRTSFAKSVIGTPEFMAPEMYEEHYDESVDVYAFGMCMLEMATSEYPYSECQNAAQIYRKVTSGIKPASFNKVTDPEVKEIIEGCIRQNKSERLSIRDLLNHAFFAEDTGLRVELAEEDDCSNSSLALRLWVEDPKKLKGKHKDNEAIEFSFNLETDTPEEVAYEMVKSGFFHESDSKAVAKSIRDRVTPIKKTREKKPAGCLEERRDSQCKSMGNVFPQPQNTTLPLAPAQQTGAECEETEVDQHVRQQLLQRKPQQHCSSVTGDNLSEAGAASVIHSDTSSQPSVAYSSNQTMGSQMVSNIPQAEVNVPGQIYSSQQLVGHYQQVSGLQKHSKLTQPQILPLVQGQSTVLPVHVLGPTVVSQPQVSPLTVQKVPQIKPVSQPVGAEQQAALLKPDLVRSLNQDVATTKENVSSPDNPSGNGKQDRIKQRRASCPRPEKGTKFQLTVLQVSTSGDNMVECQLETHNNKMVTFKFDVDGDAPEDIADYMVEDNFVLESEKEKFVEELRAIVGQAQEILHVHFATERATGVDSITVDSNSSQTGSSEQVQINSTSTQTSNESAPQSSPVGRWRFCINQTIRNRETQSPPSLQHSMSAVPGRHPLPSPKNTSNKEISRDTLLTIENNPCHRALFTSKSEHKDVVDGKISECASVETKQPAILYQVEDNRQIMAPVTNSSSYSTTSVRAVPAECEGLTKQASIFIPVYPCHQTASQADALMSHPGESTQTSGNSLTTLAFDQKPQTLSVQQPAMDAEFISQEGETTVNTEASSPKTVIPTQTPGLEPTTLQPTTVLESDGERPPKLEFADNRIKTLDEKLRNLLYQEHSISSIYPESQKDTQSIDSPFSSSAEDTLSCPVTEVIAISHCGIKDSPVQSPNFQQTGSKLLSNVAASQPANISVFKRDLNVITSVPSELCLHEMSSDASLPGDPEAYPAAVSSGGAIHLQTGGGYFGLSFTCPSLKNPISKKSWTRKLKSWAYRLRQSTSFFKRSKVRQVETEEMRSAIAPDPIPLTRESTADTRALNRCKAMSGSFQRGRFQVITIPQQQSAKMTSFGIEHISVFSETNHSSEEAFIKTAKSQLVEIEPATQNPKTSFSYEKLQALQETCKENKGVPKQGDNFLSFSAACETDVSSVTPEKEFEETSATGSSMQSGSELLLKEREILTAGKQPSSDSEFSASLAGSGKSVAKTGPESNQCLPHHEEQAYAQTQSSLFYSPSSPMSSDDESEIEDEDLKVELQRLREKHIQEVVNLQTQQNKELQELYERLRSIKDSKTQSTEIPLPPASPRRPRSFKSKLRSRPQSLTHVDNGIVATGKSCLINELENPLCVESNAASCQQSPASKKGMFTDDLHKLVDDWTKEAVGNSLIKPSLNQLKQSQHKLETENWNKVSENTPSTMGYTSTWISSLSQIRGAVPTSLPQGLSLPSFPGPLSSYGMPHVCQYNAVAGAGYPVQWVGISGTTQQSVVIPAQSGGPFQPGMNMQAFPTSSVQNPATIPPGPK
- condition details: at 10 µM
- Description: Millipore: Percentage of residual kinase activity of WNK3 at 10uM relative to control. Control inhibitor: Phosphoric acid* at 0.3uM. Buffer: 8 mM MOPS pH 7.0, 0.2 mM EDTA

{"record smiles": "C[C@@H](N)[C@H]1CC[C@H](C(=O)Nc2ccncc2)CC1", "residual activity (%)": 102}
{"record smiles": "Nc1ccc2ncnc(NCCc3ccc(Oc4ccccc4)cc3)c2c1", "residual activity (%)": 87}
{"record smiles": "O=c1cc(-c2cccc3c2Sc2ccccc2S3)oc(N2CCOCC2)c1", "residual activity (%)": 87}
{"record smiles": "CO[C@@H]1[C@H](N(C)C(=O)c2ccccc2)C[C@H]2O[C@]1(C)n1c3ccccc3c3c4c(c5c6ccccc6n2c5c31)C(=O)NC4", "residual activity (%)": 76}
{"record smiles": "c1ccc(-c2n[nH]cc2-c2ccnc3ccccc23)nc1", "residual activity (%)": 91}
{"record smiles": "O=C1NC(=O)/C(=C\\c2ccc3nccnc3c2)S1", "residual activity (%)": 79}
{"record smiles": "O=C1NC(=O)c2c1c1c3ccccc3[nH]c1c1[nH]c3cc(Br)ccc3c21", "residual activity (%)": 82}
{"record smiles": "CC(C)n1cnc2c(NCc3ccccc3)nc(NCCCO)nc21", "residual activity (%)": 92}
{"record smiles": "O=C(Nc1cccc(Nc2cc(Nc3cccc(C(F)(F)F)c3)ncn2)c1)C1CC1", "residual activity (%)": 85}
{"record smiles": "N#Cc1cnc2cnc(NCc3cccnc3)cc2c1Nc1ccc(F)c(Cl)c1", "residual activity (%)": 87}
{"record smiles": "Ic1cccc(CSc2nnc(-c3ccncc3)o2)c1", "residual activity (%)": 89}
{"record smiles": "CCOc1cc2ncnc(Nc3cccc(Br)c3)c2cc1OCC", "residual activity (%)": 86}
{"record smiles": "Nc1n[nH]c2nnc(-c3c(-c4ccccc4)nn4ccccc34)cc12", "residual activity (%)": 86}
{"record smiles": "CO[C@H]1C[C@@H]2CC[C@@H](C)[C@@](O)(O2)C(=O)C(=O)N2CCCC[C@H]2C(=O)O[C@H]([C@H](C)C[C@@H]2CC[C@@H](O)[C@H](OC)C2)CC(=O)[C@H](C)/C=C(\\C)[C@@H](O)[C@@H](OC)C(=O)[C@H](C)C[C@H](C)/C=C/C=C/C=C/1C", "residual activity (%)": 111}
{"record smiles": "c1ccc2c(-c3ccncc3)c[nH]c2c1", "residual activity (%)": 96}
{"record smiles": "CO[C@H]1[C@@H](OC)C[C@H](C)[C@@H](OC)C2=CC(=O)C=C(NC(=O)/C(C)=C/C=C/[C@H](OC)[C@@H](OC(N)=O)/C(C)=C/[C@@H]1C)C2=O", "residual activity (%)": 106}
{"record smiles": "Nc1cccc(-c2cc3c(Oc4cccc(O)c4)ncnc3[nH]2)c1", "residual activity (%)": 49}
{"record smiles": "COc1cc2ncnc(Nc3ccc(O)c(Br)c3)c2cc1OC", "residual activity (%)": 77}
{"record smiles": "CC(=O)O/N=C1\\C(=C2\\C(=O)Nc3cc(Br)ccc32)Nc2ccccc21", "residual activity (%)": 94}
{"record smiles": "CN(C)c1ccc(/C=C2\\C(=O)Nc3ccccc32)cc1", "residual activity (%)": 90}
{"record smiles": "Cc1cccc(-c2[nH]c(C(C)(C)C)nc2-c2ccc3c(c2)OCO3)n1", "residual activity (%)": 89}
{"record smiles": "COc1cc2ncnc(Nc3ccc(NC(=O)c4ccccc4)cc3)c2cc1OC", "residual activity (%)": 23}
{"record smiles": "Oc1ccc(Nc2nc(-c3ccc(Cl)cc3)cs2)cc1", "residual activity (%)": 91}
{"record smiles": "COc1cc2ncnc(Nc3ccc(Oc4ccccc4)cc3)c2cc1OC", "residual activity (%)": 49}
{"record smiles": "N#C/C(=C(\\N)Sc1ccc(N)cc1)c1ccccc1C(F)(F)F", "residual activity (%)": 89}
{"record smiles": "O=C1c2ccccc2-[n+]2ccc3c([nH]c4ccccc43)c21", "residual activity (%)": 93}
{"record smiles": "O=C(O)c1ccc2c3c1cccc3c(=O)n1c3ccccc3nc21", "residual activity (%)": 97}
{"record smiles": "Oc1ccc(-c2nc(-c3ccc(F)cc3)c(-c3ccncc3)[nH]2)cc1", "residual activity (%)": 75}
{"record smiles": "O=[N+]([O-])c1ccc(-c2nc(-c3ccc(F)cc3)c(-c3ccncc3)[nH]2)cc1", "residual activity (%)": 98}
{"record smiles": "COc1cccc(-c2cc(=O)c3ccccc3o2)c1N", "residual activity (%)": 100}
{"record smiles": "Cn1nc2c3c(cccc31)C(=O)c1ccccc1-2", "residual activity (%)": 67}
{"record smiles": "CC[n+]1c(/C=C/N(C)c2ccccc2)n(-c2ccccc2)c2ccc(-c3nc4ccccc4s3)cc21", "residual activity (%)": 44}
{"record smiles": "O=C1Nc2cc(Br)ccc2/C1=C1/Nc2ccccc2/C1=N\\O", "residual activity (%)": 93}

---

- assay target: Serine/threonine-protein kinase VRK2 (Homo sapiens) (UniProt Q86Y07)
- Sequence (Q86Y07 whole entry): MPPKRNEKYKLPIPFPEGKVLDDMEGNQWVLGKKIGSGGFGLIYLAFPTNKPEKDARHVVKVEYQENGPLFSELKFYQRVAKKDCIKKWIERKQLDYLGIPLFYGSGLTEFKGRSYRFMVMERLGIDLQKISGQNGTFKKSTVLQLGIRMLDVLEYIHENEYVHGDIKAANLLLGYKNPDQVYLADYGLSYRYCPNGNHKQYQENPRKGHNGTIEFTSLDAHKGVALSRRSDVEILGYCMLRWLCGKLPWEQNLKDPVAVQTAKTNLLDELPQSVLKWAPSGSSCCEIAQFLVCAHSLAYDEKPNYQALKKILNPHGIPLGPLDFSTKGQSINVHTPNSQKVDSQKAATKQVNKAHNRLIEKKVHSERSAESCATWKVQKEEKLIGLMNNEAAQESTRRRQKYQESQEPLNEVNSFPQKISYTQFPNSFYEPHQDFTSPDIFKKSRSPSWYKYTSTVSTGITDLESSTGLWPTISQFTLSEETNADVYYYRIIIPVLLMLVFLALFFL
- condition details: at 10 µM
- Description: Millipore: Percentage of residual kinase activity of VRK2 at 10uM relative to control. Control inhibitor: Phosphoric acid* at 0.3uM. Buffer: 8 mM MOPS pH 7.0, 0.2 mM EDTA

{"record smiles": "CN(C)c1ccc(/C=C2\\C(=O)Nc3ccccc32)cc1", "residual activity, %": 87}
{"record smiles": "Nc1n[nH]c2nnc(-c3c(-c4ccccc4)nn4ccccc34)cc12", "residual activity, %": 68}
{"record smiles": "Cc1cc2ncc(-c3ccccc3)nc2cc1C", "residual activity, %": 96}
{"record smiles": "Nc1cccc(-c2cc3c(Oc4cccc(O)c4)ncnc3[nH]2)c1", "residual activity, %": 89}
{"record smiles": "O=C1NC(=O)/C(=C/c2ccc3c(c2)OC(F)(F)O3)S1", "residual activity, %": 97}
{"record smiles": "O=C1Nc2cc(Br)ccc2/C1=C1/Nc2ccccc2/C1=N\\O", "residual activity, %": 90}
{"record smiles": "CC(=O)O/N=C1\\C(=C2\\C(=O)Nc3cc(Br)ccc32)Nc2ccccc21", "residual activity, %": 97}
{"record smiles": "CCOc1cc2ncnc(Nc3cccc(Br)c3)c2cc1OCC", "residual activity, %": 74}
{"record smiles": "Oc1n[nH]c2nnc(-c3c(-c4ccccc4)nn4ccccc34)cc12", "residual activity, %": 82}
{"record smiles": "Cc1nc2cc3nc(-c4cccs4)cnc3cc2n1C", "residual activity, %": 84}
{"record smiles": "CO[C@H]1[C@@H](OC)C[C@H](C)[C@@H](OC)C2=CC(=O)C=C(NC(=O)/C(C)=C/C=C/[C@H](OC)[C@@H](OC(N)=O)/C(C)=C/[C@@H]1C)C2=O", "residual activity, %": 96}
{"record smiles": "O=C1NC(=O)/C(=C\\c2ccc3nccnc3c2)S1", "residual activity, %": 92}
{"record smiles": "Cn1nc2c3c(cccc31)C(=O)c1ccccc1-2", "residual activity, %": 77}
{"record smiles": "N#C/C(=C(\\N)Sc1ccc(N)cc1)c1ccccc1C(F)(F)F", "residual activity, %": 95}
{"record smiles": "c1ccc(-c2n[nH]cc2-c2ccnc3ccccc23)nc1", "residual activity, %": 67}
{"record smiles": "Cn1cc(/C=C2\\C(=O)Nc3ccc(S(N)(=O)=O)cc32)c2ccccc21", "residual activity, %": 93}

Ref: ChEMBL document CHEMBL2218924
